Target: T1, Spy Q49L (E. coli, UniProt P77754 24-161, Q49L)
T1 construct: N-terminal serine from the Sumo fusion construct; the footnote says it of Spy purification in general; Spy, E. coli, mature protein; numbers count on: the mature protein; Variant of m1 found by genetic selection, remade by site-directed mutagenesis; also called super-Spy variant; source: purified; not shown: SUMO, N-terminal, cleaved (from the N-terminal serine said of Spy purification in general)
T1 sequence: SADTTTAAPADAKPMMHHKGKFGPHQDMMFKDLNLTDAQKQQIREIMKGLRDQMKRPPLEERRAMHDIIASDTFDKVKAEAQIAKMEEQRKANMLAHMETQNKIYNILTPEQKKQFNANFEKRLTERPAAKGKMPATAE
Test: BLI; biotinylated Im7 L53A I54A immobilised on streptavidin sensors (Octet RED); Spy variants at 2, 1, 0.5, 0.25 and 0.125 µM; 25°C; 40 mM HEPES, 150 mM NaCl, pH 7.5; 1:1 binding model, KD = koff/kon; apparent
Conditions: both partners purified
Measurement kind: Kd (nM)
Output spec: scalar in nM, unitless text.

For Biotinylated Im7 L53A I54A (natural protein, biotin (EZ-link NHS-biotin at 1:1 molar ratio; site not stated), N-terminal serine from the Sumo fusion construct; the footnote says it of Im7 purification in general; immunity protein 7 (Im7), colicin E7 immunity protein; Same protein as m10 with biotin; held on streptavidin sensors; also called biotin-conjugated Im7 L53A I54A; immunity protein 7 L53A I54A; source: purified from a Sumo fusion construct (Quan et al., 2011), biotinylated with EZ-link …) SMELKNSISDYTEAEFVQLLKEIEKENVAATDDVLDVLLEHFVKITEHPDGTDAAYYPSDNRDDSPEGIVKEIKEWRAANGKPGFKQG , what is its reported Kd?
760
